src = the supplement of paper PMC7801607

System: Plasmodium falciparum NF54 stage IV/V gametocytes
Experiment description: % inhibition of gametocyte viability (luciferase reporter); higher = more inhibition
Measurement parameters: 1 µM; 48 h
Observed property: % inhibition of gametocyte viability

INSERT INTO measurements (molecule, observed_property, reported_result) VALUES
  ('CC(Oc1ccc(Cl)cc1Cl)C(=O)NCc1ccc2c(c1)OCO2 (configuration not stated)', '% inhibition of gametocyte viability', '< 0%'),
  ('O=[N+]([O-])c1ccc2c(CCc3c[nH]c4ccccc34)c[nH]c2c1', '% inhibition of gametocyte viability', '< 0%'),
  ('CC1(C)Cc2c(C#N)c(SCCc3ccccc3)nc(N3CCOCC3)c2CO1', '% inhibition of gametocyte viability', '< 0%'),
  ('OC1O[C@H](CSc2ccc(F)cc2)[C@@H](O)[C@H]1O (some centres not stated)', '% inhibition of gametocyte viability', '< 0%'),
  ('CCc1cc(CCCOc2c(C)cc(-c3noc(C(F)(F)F)n3)cc2C)on1', '% inhibition of gametocyte viability', '8.61%'),
  ('COc1ccc(SC(=O)N[C@H](CCC(=O)O)C(=O)O)cc1', '% inhibition of gametocyte viability', '23.9%'),
  ('CC(C)(C)c1cc(CCC(=O)N2CCC2)cc(C(C)(C)C)c1O', '% inhibition of gametocyte viability', '< 0%'),
  ('CCc1cc(O)c(Oc2cccnc2N)cc1F', '% inhibition of gametocyte viability', '< 0%'),
  ('O=C(Nc1ccccc1C(=O)O)c1cccc(Oc2ccccc2)c1', '% inhibition of gametocyte viability', '< 0%'),
  ('O=C(Nc1ccc(F)cc1)c1nn(-c2ccccc2)c(=O)cc1Cl', '% inhibition of gametocyte viability', '29.4%'),
  ('Nc1nc(NC2Cc3ccc(F)cc3C2)nc(N2CCCCC2)n1 (configuration not stated)', '% inhibition of gametocyte viability', '< 0%'),
  ('O=C(Cc1ccccc1F)Nc1nc2ccccc2[nH]1', '% inhibition of gametocyte viability', '< 0%'),
  ('Cc1onc(-c2ccccc2)c1-c1ccc(S(N)(=O)=O)cc1', '% inhibition of gametocyte viability', '0.106%'),
  ('COc1ccc(-n2cnc3cc(NCc4ccco4)ccc32)cc1', '% inhibition of gametocyte viability', '< 0%'),
  ('CCc1oc2ccccc2c1C(=O)c1ccc(O)cc1', '% inhibition of gametocyte viability', '< 0%'),
  ('Cc1onc(-c2ccccc2Cl)c1C(=O)N[C@@H]1C(=O)N2[C@@H]1SC(C)(C)[C@@H]2C(=O)O', '% inhibition of gametocyte viability', '< 0%'),
  ('O=C(NCc1ncc(C(F)(F)F)cc1Cl)c1c(Cl)cccc1Cl', '% inhibition of gametocyte viability', '< 0%'),
  ('O=c1nc(N2CCN(CC3CCCCC3)CC2)sc2c([N+](=O)[O-])cc(C(F)(F)F)cc12', '% inhibition of gametocyte viability', '8.82%'),
  ('O=C(Cn1cnc2ccccc2c1=O)Nc1ccccc1', '% inhibition of gametocyte viability', '2.6%'),
  ('Cc1c[nH]c(=O)nc1NCc1ccccc1', '% inhibition of gametocyte viability', '< 0%'),
  ('COc1ccc(COc2cc3oc(=O)c4cc(C(C)O)ccc4c3cc2OC)cc1 (configuration not stated)', '% inhibition of gametocyte viability', '< 0%'),
  ('FC(F)(F)Oc1ccc(Nc2ccc3cccc(Cl)c3n2)cc1', '% inhibition of gametocyte viability', '< 0%');

----------
Test system: Plasmodium berghei ANKA liver stage in HepG2-A16-CD81
Experiment description: % inhibition of liver stage parasite viability (luciferase); higher = more inhibition
Measurement parameters: 5 µM; 48 h
Observed property: % inhibition of liver stage parasite viability (%)

INSERT INTO measurements (molecule, study_target, reported_result) VALUES
  ('Nc1cccc(-c2nc(N)nc(NC3Cc4ccccc4C3)n2)c1', 'Plasmodium berghei ANKA liver stage in HepG2-A16-CD81', -38.1),
  ('COc1ccc(NC(=O)CC2Sc3ncnn3C2=O)cc1 (stereo unspecified)', 'Plasmodium berghei ANKA liver stage in HepG2-A16-CD81', 34.5),
  ('CCOc1ccc(C(=O)NCCc2ccccc2)cc1', 'Plasmodium berghei ANKA liver stage in HepG2-A16-CD81', -19.9),
  ('CC(C)Oc1ccc(-c2nc(-c3cccc4c3CC[C@@H]4NCCO)no2)cc1C#N', 'Plasmodium berghei ANKA liver stage in HepG2-A16-CD81', 21.6),
  ('CS(=O)(=O)c1ccc(Oc2ccc(Cl)cc2)cc1', 'Plasmodium berghei ANKA liver stage in HepG2-A16-CD81', 9.76),
  ('Cc1ncc([N+](=O)[O-])n1CC(C)O (stereo unspecified)', 'Plasmodium berghei ANKA liver stage in HepG2-A16-CD81', 13.9),
  ('O=[N+]([O-])c1cn(Cc2nc(O)nc(O)c2Br)cn1', 'Plasmodium berghei ANKA liver stage in HepG2-A16-CD81', 19.1),
  ('CCCCCCCCCN1C[C@@H](O)[C@H](O)[C@@H](O)[C@@H]1CO', 'Plasmodium berghei ANKA liver stage in HepG2-A16-CD81', -1.14),
  ('O=C(NNC(=S)Nc1ccc(Cl)cc1)c1ccncc1', 'Plasmodium berghei ANKA liver stage in HepG2-A16-CD81', 5.18),
  ('COc1cccc(N2CCN(C3=Nc4c(F)cccc4[C@H](CC(=O)O)N3c3cc(C(F)(F)F)ccc3OC)CC2)c1', 'Plasmodium berghei ANKA liver stage in HepG2-A16-CD81', 21.2),
  ('O=P(O)(O)C(CCCc1cccc(Oc2ccccc2)c1)S(=O)(=O)O (stereo unspecified)', 'Plasmodium berghei ANKA liver stage in HepG2-A16-CD81', 9.62);

----------
Test system: Plasmodium falciparum NF54 asexual blood stage
Experiment description: % inhibition of asexual blood stage proliferation (pLDH); higher = more inhibition
Measurement parameters: 20 µM; 72 h
Below: a set of entries, each annotated with reported % inhibition of asexual blood stage proliferation.
Observed property: % inhibition of asexual blood stage proliferation

INSERT INTO results (compound, reported_result) VALUES
  ('C[C@@H](O)[C@H](N)C(=O)NS(=O)(=O)c1cccc(-c2ccc3[nH]ncc3c2)c1', '32%'),
  ('CC(N)C12CC3CC(CC(C3)C1)C2 (stereo not given)', '20.4%'),
  ('O=C(O)C(Cc1c[nH]c2ccccc12)N1C(=O)c2ccccc2C1=O (stereo not given)', '72.4%'),
  ('O=C(Nc1ccccc1C(=O)O)c1cccc(Oc2ccccc2)c1', '-12.5%'),
  ('CCCNc1ccc(S(=O)(=O)Nc2cc(C)on2)cc1', '-9.2%'),
  ('CC(Cc1ccccc1)C(=O)Nc1ccc(Cl)cc1C(=O)O (stereo not given)', '76.5%'),
  ('N#Cc1cc([N+](=O)[O-])ccc1Oc1ccccc1Cl', '84.9%'),
  ('CN(C)CC(=O)Nc1ccc2[nH]c(=O)c3ccccc3c2c1', '32.5%'),
  ('CCC[C@H](NC(=O)[C@@H]1[C@H]2CCC[C@H]2CN1C(=O)[C@@H](NC(=O)[C@@H](NC(=O)c1cnccn1)C1CCCCC1)C(C)(C)C)C(=O)C(=O)NC1CC1', '57%'),
  ('CCC(C)(C)c1ccc(CC(C)CN2C[C@@H](C)O[C@@H](C)C2)cc1 (stereo not given in full)', '82%'),
  ('Cc1cccc(CC(=O)N[C@H]2CCOC2=O)c1', '53.6%'),
  ('CCOCc1nc2c(N)nc3ccccc3c2n1CC(C)(C)O', '77%'),
  ('Cc1cc(O)c2c(c1)C(=O)c1c(I)c(O)c(I)c(O)c1C2=O', '64.9%'),
  ('O=c1cc(Nc2ccc3ccccc3c2)[nH]c(=O)[nH]1', '3.03%'),
  ('CC(C)(C)c1ccc(C(Cn2cccc(C(F)(F)F)c2=O)NC2Cc3ccccc3C2)cc1 (stereo not given)', '69.1%'),
  ('COc1ccc(CNC(=O)C(NS(=O)(=O)c2ccc3nc(C)sc3c2)C(C)C)cc1 (stereo not given)', '111%'),
  ('CNCC(=O)OCc1cccnc1N(C)C(=O)OC(C)[n+]1cnn(C[C@](O)(c2cc(F)ccc2F)[C@@H](C)c2nc(-c3ccc(C#N)cc3)cs2)c1 (stereo not given in full)', '37.7%'),
  ('NC(=O)c1ccc(I)c([N+](=O)[O-])c1', '51.2%'),
  ('Cc1nc2ccc(Oc3ccccc3)cc2c2c1CCN2CCc1ccccc1', '110%'),
  ('COc1ccc2cc3[n+](cc2c1OCCN(CCn1cncn1)Cc1ccc(F)cc1F)CCc1cc2c(cc1-3)OCO2', '84.3%'),
  ('C[C@H](c1cccc2ccccc12)N(C)Cc1ccccc1', '18.9%'),
  ('Nc1nnnn1CCOc1c2[nH]c3ccc(Cl)cc3c2cc2c1[nH]c1ccc(Cl)cc12', '95.2%'),
  ('COc1cc(C(C(=O)NC2CCCCC2)N(C(=O)Cc2c[nH]c3ccccc23)c2ccc(C(C)C)cc2)cc(OC)c1OC (stereo not given)', '71.8%'),
  ('O=C(Nc1nnc(-c2ccc(Cl)cc2)o1)c1nc2ccccc2s1', '91.4%'),
  ('OC1O[C@H](CSc2ccc(F)cc2)[C@@H](O)[C@H]1O (stereo not given in full)', '90.9%'),
  ('Nc1nc(-c2ccccc2)nc2c1ncn2[C@@H]1O[C@H](COS(=O)(=O)NC(=O)c2ccccc2O)[C@@H](O)[C@H]1O', '71.1%'),
  ('Nc1cccc(-c2nc(N)nc(NC3Cc4ccccc4C3)n2)c1', '22.3%'),
  ('COc1ccc(NC(=O)c2cc3ccccn3n2)cc1', '87.1%'),
  ('CC(=O)N[C@H](C)C(=O)N[C@H](Cc1ccccc1)C(=O)O', '81.8%'),
  ('Nc1nc(Nc2ccc3nc(-c4ccc(F)cc4)cc(N)c3c2)cc(-c2ccccc2)n1', '96.9%'),
  ('O=S(=O)(Nc1ccc(O)cc1)c1cccc2cccnc12', '52.4%'),
  ('COc1ccc(C2CNC(=O)C2)cc1OC1CCCC1 (stereo not given)', '40.1%'),
  ('CNc1nc(=O)[nH]cc1F', '-14.1%'),
  ('COc1ccc(OCc2ccc(COc3c(Cl)cccc3Cl)cc2)c(Cl)c1', '68.1%'),
  ('CC[C@@]1(O)C(=O)OCc2c1cc1n(c2=O)Cc2cc3c(CN(C)C)c(O)ccc3nc2-1', '82.3%'),
  ('NC1C2CC3CC(C2)CC1C3 (stereo not given)', '43.4%'),
  ('CCCC1(C2CC2)c2cc(Cl)ccc2NC(=O)N1C (stereo not given)', '53.6%'),
  ('CCn1cc(C(=O)O)c(=O)c2cc(F)c(N3CCNC(C)C3)c(F)c21 (stereo not given)', '28.9%'),
  ('Cc1ccc(NC(=O)c2ccc(CN3CCN(C)CC3)cc2)cc1Nc1nccc(-c2cccnc2)n1', '98.3%'),
  ('Cc1ccc(NC(=O)c2cc(Cl)ccc2O)cc1', '98.8%');
